- assay.explanation: yeast display, Sf9 membrane polyspecificity reagent, FACS + sequencing; frameworks hold sequencing errors
experimental.readout: polyreactivity (PSR sort gate)

QVQLVESGGGLVQAGGSLLLSCAASGSIFFPNAMGWYRQAPGKERELVAAINWSGDSTYYADSVKGRFTISRDNAKNTVYLQMNSLKPVDTAVYSCNATYPWFDYDYWGQGTQVTVSS
low polyreactivity
QVQLVESGGGLVQAGGSLRLSCADSGNIFRSYKGWYRQAPGKERELVASISRRGGSTYYADSVKGRFTISRDNAKNTVYLQINSLKPEDSAVYYCARRWSWVNGVFGLYWGQGTQVTLSS
high polyreactivity
QFQHVDSGGGLVQAGGSLRLSCADSGYTFPLYDMGRYRKAPGKVSELVADINIGGASTYYADSVKGRLTISRDNSKNSVYLQMNSLKPEDTAVYYCAKEYYDGYFPTFDYDYWGQGTQVTVSS
low polyreactivity
QVQLVESGGGLVQAGGSLRLSCAASGGTLRYYAMGWYRQAPGTEREFVASIARSGGSTYYADSVKGGFTISRDNAKNTVYLQMNRLKPEDTAVYYCADRVRLYRGFTKYDYWGQGTQVTVSS
high polyreactivity
QVQLVESGGGLVQAGGSLRLSCAASGFIFGYYAMGCYTQAPGKERELVARSTSSGGSTYYADSVKGRFTISRDNAKTTVYLQMNSLKPEDTAVYYCAKSPRAPRYMPYGYWGQGSQVTVSS
high polyreactivity
QVQLVESGGGLVQAGGSLRLSCAASGRIFHVYAMGWYRQAPGKERELVAAISSGDRTYYADSVKGRFIISRDNAKNTVYLQMNSLKPEDTAVYYCAATAQYYHYHLAKYDYWGQGTQVTVSS
low polyreactivity
QVQLVESGGGLVQAGGSLRLSCAASGSTFASYAMGWYRQAPGKEREFVAAISRSGGSTYYADSVKGRFTISRDNAKNTVYLQMTSLKPEDTAVYYCAARSPSADEYYYWGQGTQVTVSS
low polyreactivity
QVQLVESGGGLVHAGGSLRLSCAASGSTFFLYAMGWYRQAHGKERELVAAISSDGSTYYADSVKGRFTISRDNAKHTVYLQMNSLKPEDTAVYYCAAEYTPSYYEYYYWGQGTQVTVSS
low polyreactivity

Qu. Field request: polyreactivity (PSR sort gate) | item: QVQLVESGGGLVQAGGSLRLSCAASGIIFPYYAMGWYRPAPGKERELVAASTGRGTSTYADSVKGRFTISRDNAKNTVYLQMNSRKPEDTAVYYCAAVGWFADFLFSDINGYYWGQGTQVTVSS
Ans. low polyreactivity

Qu. I am curious: what polyreactivity (PSR sort gate) value has been reported for QVQLVESGGGLVQAGGSLRLSCAASGITLYWYAMGWYRQAPGKERELVAAISRRGGTTYYADSVKGRFTISRDNAKNTVYLQMNSLKPEDTAVYYCAKAPDTQTSWSRQEGNYWGQGTQVTVSS ?
Ans. low polyreactivity

Qu. Name the recorded polyreactivity (PSR sort gate) for QVQLVESGGGLVQAGGSLRLSCAASGSTFSYNAMGWYRQAPGKERELVAAISRSGGSTYYADSVKGRFTISRDNAKNTVYLQIKSLKPEFTAVYYFAADSPYGYYEGDYWGQGTQVTVSS .
Ans. low polyreactivity

###

- assay.explanation: yeast display, Sf9 membrane polyspecificity reagent, FACS + sequencing; frameworks hold sequencing errors
experimental.readout: polyreactivity (PSR sort gate)

QVQLVESGGGLVQAGGSLRLSCAASGSTFRYYAMGWYRQAPGKVRELVAAITSSGGSTYYADSVKGRFTISRDNEKNTVYLQMNSLKPEDTAVYYCNAVSSYREDDYWGQGTQVTVSS
high polyreactivity
QVQLVESGGGLVQAGGSLRLSCAASGRTFNWNALGWYRQAPGKERELVATISRRGGSTYYADSVKGRFTISRDNAKNTVYLQMNSLKREDTAVYYCITAGRYGYDYWGQGTQVTVSS
high polyreactivity
